The values you see were collected from paper PMC13586308.

target_system: BRD2BD2 (Homo sapiens, UniProt P25440)
Sequence (P25440 344-453 limits assumed): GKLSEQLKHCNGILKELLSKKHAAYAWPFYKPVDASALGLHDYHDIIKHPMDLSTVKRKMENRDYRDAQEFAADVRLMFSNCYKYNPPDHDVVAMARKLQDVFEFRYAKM
protocol_notes: competitive FP assay, BRD2 BD2 -/+ FKBP12
Assay type: binding
study_conditions: absence of FKBP12; read-out: Binding to BRD2BD2 - FKBP12 Kd
observable: Kd
Phrase the answer as number then unit, nothing more needed.

For each of the molecules below, note its Kd.
1. Cc1sc2c(c1C)C(c1ccc(Cl)cc1)=NC(CC(=O)NCCOCCn1cc(COCC3CN(C(C)c4ccccn4)C(=O)C4CCCC3N4S(=O)(=O)c3cc(Cl)cc(Cl)c3)nn1)c1nnc(C)n1-2 (stereo not shown) [a1dj]
2. Cc1sc2c(c1C)C(c1ccc(C#CCNC(=O)COCCn3cc(C4CN(Cc5ccccn5)C(=O)C5CCCC4N5S(=O)(=O)c4cc(Cl)cc(Cl)c4)nn3)cc1)=NC(CC(=O)OC(C)(C)C)c1nnc(C)n1-2 (stereo not shown) [b3c]
3. Cc1sc2c(c1C)C(c1ccc(Cl)cc1)=NC(CC(=O)N1CCC3(CC1)CC(n1cc(C4CN(Cc5ccccn5)C(=O)C5CCCC4N5S(=O)(=O)c4cc(Cl)cc(Cl)c4)nn1)C3)c1nnc(C)n1-2 (stereo not shown) [a13c]
4. Cc1sc2c(c1C)C(c1ccc(Cl)cc1)=NC(CC(=O)NCCOCCn1cc(COCC3CN(Cc4ccccn4)C(=O)C4CCCC3N4S(=O)(=O)c3cc(Cl)cc(Cl)c3)nn1)c1nnc(C)n1-2 (stereo not shown) [a1d]

1: 140 nM; 2: 150 nM; 3: 960 nM; 4: 190 nM

---

Assign α BRD3BD1 to each entry below.
target_system: BRD3BD1 (Homo sapiens)
Construct: to the isolated BD1 and BD2 domains of BRD2, BRD3 and BRD4
Sequence (Q15059 34-140 limits assumed): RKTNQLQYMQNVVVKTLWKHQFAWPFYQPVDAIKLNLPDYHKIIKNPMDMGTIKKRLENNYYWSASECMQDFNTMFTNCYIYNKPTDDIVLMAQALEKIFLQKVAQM
protocol_notes: competitive FP assay, BRD3 BD1 -/+ FKBP12
Type: binding
One number for each entry.

Cc1sc2c(c1C)C(c1ccc(Cl)cc1)=N[C@@H](CC(=O)OC(C)(C)C)c1nnc(C)n1-2 [JQ1, (+)-JQ1, reference compound]: 1.0
Cc1sc2c(c1C)C(c1ccc(Cl)cc1)=NC(CC(=O)NCCOCCn1cc(COCC3CN(Cc4ccccn4)C(=O)C4CCCC3N4S(=O)(=O)c3cc(Cl)cc(Cl)c3)nn1)c1nnc(C)n1-2 (stereo not shown): 7.4
Cc1sc2c(c1C)C(c1ccc(Cl)cc1)=NC(CC(=O)N1CCC3(CC1)CC(n1cc(C4CN(Cc5ccccn5)C(=O)C5CCCC4N5S(=O)(=O)c4cc(Cl)cc(Cl)c4)nn1)C3)c1nnc(C)n1-2 (stereo not shown) [a13c]: 46

I have this molecule here, Cc1sc2c(c1C)C(c1ccc(C#CCNC(=O)COCCn3cc(C4CN(Cc5ccccn5)C(=O)C5CCCC4N5S(=O)(=O)c4cc(Cl)cc(Cl)c4)nn3)cc1)=NC(CC(=O)OC(C)(C)C)c1nnc(C)n1-2 (stereo not shown) , and I need its recorded α BRD3BD1.
2.7

---

target_system: His-BRD4^BD1 + eGFP-FKBP12 (Homo sapiens, UniProt O60885+P62942)
Construct: the His6-tag of the respective BD1 or BD2 domain of BRD4 and EGFP-labeled FKBP12
Sequence (P62942 2-108 limits assumed, other chains not shown): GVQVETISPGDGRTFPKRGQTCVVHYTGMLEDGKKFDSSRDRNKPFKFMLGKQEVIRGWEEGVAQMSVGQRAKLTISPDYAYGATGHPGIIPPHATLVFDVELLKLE
protocol_notes: HTRF ternary complex formation BRD4 BD1 + EGFP-FKBP12
study_conditions: eGFP-FKBP12 5 µM, His-BRD4^BD1 100 nM; read-out: HTRF BRD4^BD1 + GFP-FKBP12 Kd
Please provide measured Kd for the entries that follow.
One number for each entry, in nM.

// known answers, use as guide
Cc1sc2c(c1C)C(c1ccc(Cl)cc1)=NC(CC(=O)NCCOCCn1cc(COCC3CN(Cc4ccccn4)C(=O)C4CCCC3N4S(=O)(=O)c3cc(Cl)cc(Cl)c3)nn1)c1nnc(C)n1-2 (stereo not shown) [a1d]: 9
Cc1sc2c(c1C)C(c1ccc(Cl)cc1)=NC(CC(=O)NCCOCCn1cc(COCC3CN(C(C)c4ccccn4)C(=O)C4CCCC3N4S(=O)(=O)c3cc(Cl)cc(Cl)c3)nn1)c1nnc(C)n1-2 (stereo not shown) [a1dj]: 15
Cc1sc2c(c1C)C(c1ccc(Cl)cc1)=NC(CC(=O)N1CCC3(CC1)CC(n1cc(C4CN(Cc5ccccn5)C(=O)C5CCCC4N5S(=O)(=O)c4cc(Cl)cc(Cl)c4)nn1)C3)c1nnc(C)n1-2 (stereo not shown) [a13c]: 13

# query: Kd of entry Cc1sc2c(c1C)C(c1ccc(C#CCNC(=O)COCCn3cc(C4CN(Cc5ccccn5)C(=O)C5CCCC4N5S(=O)(=O)c4cc(Cl)cc(Cl)c4)nn3)cc1)=NC(CC(=O)OC(C)(C)C)c1nnc(C)n1-2 (stereo not shown) [b3c]
1

---

target_system: BRD4^BD1 (Homo sapiens, UniProt O60885)
Construct: to the isolated BD1 and BD2 domains of BRD2, BRD3 and BRD4
protocol_notes: competitive fluorescence polarization assay, BRD4 BD1 -/+ presenter protein
Type: binding
study_conditions: absence of FKBP51FK1 (SI Table 3); read-out: Binding to BRD4BD1 - FKBP51FK1 Kd
Give pKd for every item shown.
Numbers only, as −log10 of the molar value.

// worked examples, pKd included
Cc1sc2c(c1C)C(c1ccc(Cl)cc1)=NC(CC(=O)NCCOCCn1cc(COCC3CN(C(C)c4ccccn4)C(=O)C4CCCC3N4S(=O)(=O)c3cc(Cl)cc(Cl)c3)nn1)c1nnc(C)n1-2 (stereo not shown): 6.60
Cc1sc2c(c1C)C(c1ccc(C#CCNC(=O)COCCn3cc(C4CN(Cc5ccccn5)C(=O)C5CCCC4N5S(=O)(=O)c4cc(Cl)cc(Cl)c4)nn3)cc1)=NC(CC(=O)OC(C)(C)C)c1nnc(C)n1-2 (stereo not shown): 7.14
Cc1sc2c(c1C)C(c1ccc(Cl)cc1)=NC(CC(=O)NCCOCCn1cc(COCC3CN(Cc4ccccn4)C(=O)C4CCCC3N4S(=O)(=O)c3cc(Cl)cc(Cl)c3)nn1)c1nnc(C)n1-2 (stereo not shown): 6.52

Here is the next item to consider.
Would you mind telling me what pKd value was observed for Cc1sc2c(c1C)C(c1ccc(Cl)cc1)=NC(CC(=O)N1CCC3(CC1)CC(n1cc(C4CN(Cc5ccccn5)C(=O)C5CCCC4N5S(=O)(=O)c4cc(Cl)cc(Cl)c4)nn1)C3)c1nnc(C)n1-2 (stereo not shown) [a13c] ?
5.82

---

target_system: BRD4^BD2 (Homo sapiens)
Construct: to the isolated BD1 and BD2 domains of BRD2, BRD3 and BRD4
protocol_notes: competitive fluorescence polarization assay, BRD4 BD2 -/+ presenter protein
Assay type: binding
study_conditions: absence of FKBP12; 2 nM JQ1-FL tracer; read-out: Binding to BRD4^BD2 - FKBP12 Kd
observable: pKd
Numbers only, as −log10 of the molar value.

Example molecules with recorded pKd:
Cc1sc2c(c1C)C(c1ccc(C#CCNC(=O)COCCn3cc(C4CN(Cc5ccccn5)C(=O)C5CCCC4N5S(=O)(=O)c4cc(Cl)cc(Cl)c4)nn3)cc1)=NC(CC(=O)OC(C)(C)C)c1nnc(C)n1-2 (stereo not shown): 6.82
Cc1sc2c(c1C)C(c1ccc(Cl)cc1)=NC(CC(=O)NCCOCCn1cc(COCC3CN(C(C)c4ccccn4)C(=O)C4CCCC3N4S(=O)(=O)c3cc(Cl)cc(Cl)c3)nn1)c1nnc(C)n1-2 (stereo not shown): 6.40
Cc1sc2c(c1C)C(c1ccc(C#CCNC(=O)COCCn3cc(COCC4CN(Cc5ccccn5)C(=O)C5CCCC4N5S(=O)(=O)c4cc(Cl)cc(Cl)c4)nn3)cc1)=NC(CC(=O)OC(C)(C)C)c1nnc(C)n1-2 (stereo not shown): 6.96
Cc1sc2c(c1C)C(c1ccc(Cl)cc1)=NC(CC(=O)N1CCC(N3CCC(Cn4cc(COCC5CN(Cc6ccccn6)C(=O)C6CCCC5N6S(=O)(=O)c5cc(Cl)cc(Cl)c5)nn4)CC3)CC1)c1nnc(C)n1-2 (stereo not shown) [a10d]: 6.77
Cc1sc2c(c1C)C(c1ccc(Cl)cc1)=NC(CC(=O)N1CCC(CN3CCC(n4cc(COCC5CN(Cc6ccccn6)C(=O)C6CCCC5N6S(=O)(=O)c5cc(Cl)cc(Cl)c5)nn4)CC3)CC1)c1nnc(C)n1-2 (stereo not shown): 6.15

Go through the list and state pKd for each entry.
1. Cc1sc2c(c1C)C(c1ccc(Cl)cc1)=NC(CC(=O)NCCOCCn1cc(COCC3CN(CC(=O)N4CCC(C)CC4)C(=O)C4CCCC3N4S(=O)(=O)c3cc(Cl)cc(Cl)c3)nn1)c1nnc(C)n1-2 (stereo not shown)
2. Cc1sc2c(c1C)C(c1ccc(Cl)cc1)=NC(CC(=O)NCCOCCn1cc(C3CN(Cc4ccccn4)C(=O)C4CCCC3N4S(=O)(=O)c3cc(Cl)cc(Cl)c3)nn1)c1nnc(C)n1-2 (stereo not shown)
3. Cc1sc2c(c1C)C(c1ccc(Cl)cc1)=NC(CC(=O)N1CCC(N3CCC(n4cc(C5CN(Cc6ccccn6)C(=O)C6CCCC5N6S(=O)(=O)c5cc(Cl)cc(Cl)c5)nn4)CC3)CC1)c1nnc(C)n1-2 (stereo not shown)
4. Cc1sc2c(c1C)C(c1ccc(Cl)cc1)=NC(CC(=O)N1CCC(CN3CCC(Cn4cc(COCC5CN(Cc6ccccn6)C(=O)C6CCCC5N6S(=O)(=O)c5cc(Cl)cc(Cl)c5)nn4)CC3)CC1)c1nnc(C)n1-2 (stereo not shown)
5. Cc1sc2c(c1C)C(c1ccc(Cl)cc1)=NC(CC(=O)N1CC(CN3CCC(Cn4cc(C5CN(Cc6ccccn6)C(=O)C6CCCC5N6S(=O)(=O)c5cc(Cl)cc(Cl)c5)nn4)CC3)C1)c1nnc(C)n1-2 (stereo not shown) [a12c]

1: 6.49; 2: 6.23; 3: 6.51; 4: 6.89; 5: 6.10
